Value source: patent US20190105367A1

system: A. baumannii A472; assay: MIC without and with sub-inhibitory polymyxin B (Example 4); type: cell-based, Acinetobacter baumannii; settings: Acinetobacter baumannii, A472, read-out: MIC +[…] PB, A. baumannii A472; +[…] polymyxin B; 1st experiment
readout name: log10 MIC (log10 of the value in mg/L)
Transform log10 | Measure MIC | Unit mg/L

Field log10 MIC (entry Cc1c(-c2ccc(CN)cc2)c(F)cn2c(=O)c(C(=O)O)cc(C3CC3)c12 ) reads -0.30

Field log10 MIC (entry COc1c(N2C[C@@H]3CCCN[C@@H]3C2)c(F)cc2c(=O)c(C(=O)O)cn(C3CC3)c12 ) reads 1.51

Field log10 MIC (entry Cc1c(-c2cc(Cl)c(N)c(Cl)c2)ccn2c(=O)c(C(=O)O)cc(C3CC3)c12 ) reads -0.30

Field log10 MIC (entry Cc1c(-c2ccc(CN)c(F)c2)ccn2c(=O)c(C(=O)O)cc(C3CC3)c12 ) reads 0.00

Field log10 MIC (entry C[C@H]1COc2c(N3CCN(C)CC3)c(F)cc3c(=O)c(C(=O)O)cn1c23 [Levofloxacin, reference compound] ) reads 0.60

Field log10 MIC (entry NCC[C@H](O)C(=O)N[C@@H]1C[C@H](N)[C@@H](O[C@H]2O[C@H](CN)[C@@H](O)[C@H](O)[C@H]2O)[C@H](O)[C@H]1O[C@H]1O[C@H](CO)[C@@H](O)[C@H](N)[C@H]1O [Amikacin, reference compound] ) reads 1.20

Field log10 MIC (entry Cc1c(-c2ccc(CN)cc2)ccn2c(=O)c(C(=O)O)cc(C3CC3)c12 ) reads 0.00
